- PROTOCOL_SUMMARY: yeast display, Sf9 membrane polyspecificity reagent, FACS + sequencing; frameworks hold sequencing errors
RECORDED_ENDPOINT: polyreactivity (PSR sort gate)

Solved cases (4 shown):
residue_string=QVQLVESGGGLVQAGGSLRLICAASGGTFWIYAMGWYRQAPGKERELVAGITTSGATTYYADSVKGRFTISRDNAKNTVYLQMNSLKPEDTAVYYCAADEYYRYEYWGQGTQVTVSS recorded_endpoint="polyreactivity (PSR sort gate)" result="low polyreactivity"
residue_string=QVKLVESGRGLVQAGCSLRITCAASGGTLDNNAMGRYRQAPGKERELVAAISSSGSRTYYADSVKGRFTISRDHAKNSVYLQMNSLKPEDTAVYYCAARRYVRRYYWGQGTQVTVSS recorded_endpoint="polyreactivity (PSR sort gate)" result="high polyreactivity"
residue_string=QDQLVESGGGLVQAGGSLRLSCAASGSIFRAYAMGRYRQPPGKERELVAAIIWTDGSTYYADSVKGRFTISRDNAKNTVYLQMNSLKPEDTAVYYCAKDSIARHNYWGQGTQVTLSS recorded_endpoint="polyreactivity (PSR sort gate)" result="low polyreactivity"
residue_string=QVHLVESGGGLVQAGGSLRLSCSASGSIFAINVMGWYRQAPGKEREFVAAITWSGGSTYYADSVKGRVTISRDNAKNTVYLQMFSLKPEDTAVYYCNARYPYKRRDYDYWGQGTQVTVSS recorded_endpoint="polyreactivity (PSR sort gate)" result="high polyreactivity"

Request: Would you kindly share the measured polyreactivity (PSR sort gate) for QVQLVESGGVLVQAGGSLRLSCAASGRIFRNYVMGWYRQAPGKEREMVAAISRSGGSTYYADSVKGRFTISRDNAKNTVYLQMNSLKPEDTAVYYCNAEYASRRVSERDYWGQGTQVTVSS ?
Result: high polyreactivity
